# EXPERIMENTAL_TARGET: Cyp21 enzyme (Human HEK 293-Cyp21 stable transfected cells) (Homo sapiens, UniProt P08686)
# Construct: expressed in transfected cells
# Sequence (P08686 1-495): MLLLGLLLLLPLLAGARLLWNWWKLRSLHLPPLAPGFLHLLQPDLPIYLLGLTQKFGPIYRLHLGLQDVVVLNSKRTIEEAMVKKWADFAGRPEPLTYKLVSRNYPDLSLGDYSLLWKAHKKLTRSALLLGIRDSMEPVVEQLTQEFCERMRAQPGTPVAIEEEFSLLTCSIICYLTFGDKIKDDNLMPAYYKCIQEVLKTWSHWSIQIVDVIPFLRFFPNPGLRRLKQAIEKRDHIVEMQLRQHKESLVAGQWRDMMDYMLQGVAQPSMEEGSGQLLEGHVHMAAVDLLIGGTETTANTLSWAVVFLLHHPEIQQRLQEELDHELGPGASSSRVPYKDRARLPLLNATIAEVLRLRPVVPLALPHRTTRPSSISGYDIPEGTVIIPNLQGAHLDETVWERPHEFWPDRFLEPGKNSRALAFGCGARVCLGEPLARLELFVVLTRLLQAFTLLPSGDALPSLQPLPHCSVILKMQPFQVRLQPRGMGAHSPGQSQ
# MEASUREMENT_PROTOCOL: CYP21-HEK293 enzymatic assay (IC50) (Biological Example 11)
# Format: cell-based
# CONDITION_SUMMARY: HEK 293-Cyp21 cells; read-out: Biological Example No. 11: CYP21-HEK293 enzymatic assay IC50
pIC50: −log10 of the molar value.
REPORTED_METRIC: pIC50

Solved cases (10 shown):
- MOLECULE: "CC1CC2C(CC[C@]3(C)C(c4cccnc4)=CCC23)[C@@]2(C)CCNC(=O)C=C12 (some centres unmarked) [Compound 368]"
  pIC50: "> 8.00"
- MOLECULE: "CC1(C)C2=CCC3C(CC[C@]4(C)C(c5cccnc5)=CCC34)[C@@]2(C)CC/C1=N\\O (some centres unmarked) [Compound 363]"
  pIC50: "< 6.00"
- MOLECULE: "CC1CC2C(CC[C@]3(C)C(c4cccnc4)=CCC23)[C@@]2(C)CCC(=NO)C=C12 (some centres unmarked) [Compound 361]"
  pIC50: "< 7.00"
- MOLECULE: "CC1CC2C(CC[C@]3(C)C(c4cncc(C(F)F)c4)=CCC23)[C@@]2(C)CCC(=O)C=C12 (some centres unmarked) [Compound 341]"
  pIC50: "< 6.00"
- MOLECULE: "C[C@]12CCNC(=O)C=C1C(F)CC1C2CC[C@]2(C)C(c3cccnc3)=CCC12 (some centres unmarked) [Compound 370]"
  pIC50: "< 6.00"
- MOLECULE: "C[C@]12CCC(=O)C=C1C(c1ccccc1)CC1C2CC[C@]2(C)C(c3cccnc3)=CCC12 (some centres unmarked) [Compound 338]"
  pIC50: "< 6.00"
- MOLECULE: "C[C@]12CCC(=NO)C=C1C1(CC1)C[C@@H]1[C@@H]2CC[C@]2(C)C(c3cccnc3)=CC[C@@H]12 [Compound 362]"
  pIC50: "< 7.00"
- MOLECULE: "CC1CC2C3=CC=C(c4cncc(F)c4)[C@@]3(C)CCC2[C@@]2(C)CCC(=O)C=C12 (some centres unmarked) [Compound 327]"
  pIC50: "> 8.00"
- MOLECULE: "CC1CC2C3=CC=C(c4ccc(F)nc4)[C@@]3(C)CCC2[C@@]2(C)CCC(=O)C=C12 (some centres unmarked) [Compound 326]"
  pIC50: "< 6.00"
- MOLECULE: "C[C@]12CCNC(=O)C=C1C1(CC1)CC1C2CC[C@]2(C)C(c3cccnc3)=CCC12 (some centres unmarked) [Compound 369]"
  pIC50: "> 8.00"

Dear colleague, please send me the reported pIC50 for CCC1CC2C3=CC=C(c4cccnc4)[C@@]3(C)CCC2[C@@]2(C)CCC(=O)C=C12 (some centres unmarked) [Compound 482] when you can.
7.00 to 8.00

Dear colleague, please send me the reported pIC50 for CC1C[C@@H]2[C@H](CC[C@]3(C)C(c4cncc(F)c4)=CC[C@@H]23)[C@@]2(C)C=CC(=O)C=C12 (some centres unmarked) [Compound 345] when you can.
7.00 to 8.00

Dear colleague, please send me the reported pIC50 for CC1C[C@@H]2[C@H](CC[C@]3(C)C(c4cccnc4)=CC[C@@H]23)[C@@]2(C)C=CC(=O)C=C12 (some centres unmarked) [Compound 318] when you can.
> 8.00

Dear colleague, please send me the reported pIC50 for C[C@]12C=CC(=O)C=C1C1(CC1)C[C@@H]1[C@@H]2CC[C@]2(C)C(c3cccnc3)=CC[C@@H]12 [Compound 316] when you can.
> 8.00

Dear colleague, please send me the reported pIC50 for C[C@]12CCC(=O)C=C1C(=O)CC1C2CC[C@]2(C)C(c3cncc(F)c3)=CCC12 (some centres unmarked) [Compound 417] when you can.
< 6.00

Dear colleague, please send me the reported pIC50 for C[C@]12CCC(=O)C=C1C(n1ccnn1)CC1C2CC[C@]2(C)C(c3cccnc3)=CCC12 (some centres unmarked) [Compound 335] when you can.
< 6.00
